The measurements presented in this section are drawn from PubChem BioAssay (NCI).

# System: HCT-116 colon
# assayInfo: NCI tumour cell line growth inhibition, 48 h
Some molecules, each annotated with its measured GI50.
endpointLabel: GI50

molecule=CN1CCc2nc3sc(C(N)=O)c(N)c3c(-c3cccs3)c2C1 result="2.31 µM"
molecule="N/C(=N\\OC(=O)c1ccccc1)C(Cc1ccccc1)C(=O)NOC(=O)c1ccccc1 (stereo not given)" result="1.66 µM"
molecule="Cc1cc(C)c(C2CNCc3cc4c(cc32)CNCC4c2c(C)cc(C)cc2C)c(C)c1 (stereo not given)" result="2.38 µg/mL"
molecule=COc1ccc(/C=C(\C)[N+](=O)[O-])cc1OC result="1.81 µM"
molecule=O=C1C(OCCOc2ccccc2)=C(OCCOc2ccccc2)C(=O)c2ccccc21 result="3.13 µM"
